Catalogue of EC50 values
Test system: ZIKV replicon in Vero cells
METHOD NOTES: ZIKV Replication Inhibition Assay (replicon, NanoLuc)
MEASUREMENT PARAMETERS: Zika virus, Vero, 72 h, read-out: Zika Replicon EC50
Where a name gives a salt, the structure may show the parent alone.
ATTRIBUTE MEASURED: EC50

{"MOLECULE": "O=C([N-]c1c[n+](Cc2ccc(-c3cncnc3Cl)cn2)no1)Nc1cccc(C(F)(F)F)c1 [Example 179]", "ATTRIBUTE MEASURED": "EC50", "READING": "1000 to 20000 nM"}
{"MOLECULE": "NC[C@H](Cc1ccccc1)[n+]1cc([N-]C(=O)Nc2cccc(C(F)(F)F)c2)on1 [Example 54, formate]", "ATTRIBUTE MEASURED": "EC50", "READING": "> 20000 nM"}
{"MOLECULE": "Cc1noc(C)c1-c1ccc(C[n+]2cc([N-]C(=O)Nc3ncc(C(F)(F)F)s3)on2)nc1 [Example 166]", "ATTRIBUTE MEASURED": "EC50", "READING": "< 100 nM"}
{"MOLECULE": "CC(Cc1ccccc1)[n+]1cc([N-]C(=O)Nc2cccc(C(F)(F)F)c2)on1 (stereo not drawn) [Example 1]", "ATTRIBUTE MEASURED": "EC50", "READING": "1000 to 20000 nM"}
{"MOLECULE": "CC(C[n+]1cc([N-]C(=O)Nc2cccc(C(F)(F)F)c2)on1)c1ccccc1 (stereo not drawn) [Example 28]", "ATTRIBUTE MEASURED": "EC50", "READING": "100 to 1000 nM"}
{"MOLECULE": "O=C([N-]c1c[n+](Cc2ccc(-c3cncnc3C(F)(F)F)cn2)no1)Nc1ccnc(C(F)(F)F)c1 [Example 177]", "ATTRIBUTE MEASURED": "EC50", "READING": "100 to 1000 nM"}
{"MOLECULE": "O=C([N-]c1c[n+](Cc2ccc(-c3c(F)nc[nH]c3=O)cc2)no1)Nc1cccc(C(F)(F)F)c1 [Example 107]", "ATTRIBUTE MEASURED": "EC50", "READING": "1000 to 20000 nM"}
{"MOLECULE": "O=C([N-]c1c[n+]([C@H](CO)c2ccccc2)no1)Nc1cccc(C(F)(F)F)c1 [Example 31]", "ATTRIBUTE MEASURED": "EC50", "READING": "> 20000 nM"}
{"MOLECULE": "Cc1ccncc1-c1ccc(C[n+]2cc([N-]C(=O)Nc3cccc(C(F)(F)F)c3)on2)cc1 [Example 85]", "ATTRIBUTE MEASURED": "EC50", "READING": "< 100 nM"}
{"MOLECULE": "Cc1ncnc(OCCN(C)C)c1-c1ccc(C[n+]2cc([N-]C(=O)Nc3cccc(C(F)(F)F)c3)on2)nc1 [Example 123]", "ATTRIBUTE MEASURED": "EC50", "READING": "100 to 1000 nM"}
{"MOLECULE": "O=C([N-]c1c[n+]([C@@H](CO)c2ccccc2)no1)Nc1cccc(C(F)(F)F)c1 [Example 30]", "ATTRIBUTE MEASURED": "EC50", "READING": "1000 to 20000 nM"}
{"MOLECULE": "C[C@@H](Cc1ccccc1)[n+]1cc([N-]C(=O)Nc2cccc(C(F)(F)F)c2)on1 [Example 14]", "ATTRIBUTE MEASURED": "EC50", "READING": "> 20000 nM"}
{"MOLECULE": "CC(Cc1ccccc1)[n+]1cc([N-]C(=O)Nc2ccc3ncccc3c2)on1 (stereo not drawn) [Example 12]", "ATTRIBUTE MEASURED": "EC50", "READING": "> 20000 nM"}
{"MOLECULE": "Cc1noc(C)c1-c1ccc(C[n+]2cc([N-]C(=O)Nc3cccc(C(F)(F)F)c3)on2)nc1 [Example 109]", "ATTRIBUTE MEASURED": "EC50", "READING": "< 100 nM"}
{"MOLECULE": "N#Cc1ncncc1-c1ccc(C[n+]2cc([N-]C(=O)Nc3cccc(C(F)(F)F)c3)on2)cc1 [Example 106]", "ATTRIBUTE MEASURED": "EC50", "READING": "100 to 1000 nM"}
{"MOLECULE": "Cc1cnncc1-c1ccc(C[n+]2cc([N-]C(=O)Nc3cccc(C(F)(F)F)c3)on2)cc1 [Example 93]", "ATTRIBUTE MEASURED": "EC50", "READING": "< 100 nM"}
{"MOLECULE": "O=C([N-]c1c[n+](Cc2ccc(Br)cc2)no1)Nc1cccc(C(F)(F)F)c1 [Example 19]", "ATTRIBUTE MEASURED": "EC50", "READING": "100 to 1000 nM"}
{"MOLECULE": "Cc1nn(C)cc1-c1ccc(C[n+]2cc([N-]C(=O)Nc3cccc(C(F)(F)F)c3)on2)cc1 [Example 96]", "ATTRIBUTE MEASURED": "EC50", "READING": "100 to 1000 nM"}
{"MOLECULE": "COc1ncc(-c2ccc(C[n+]3cc([N-]C(=O)Nc4cncc(C(F)(F)F)c4)on3)nc2)c(C)n1 [Example 133]", "ATTRIBUTE MEASURED": "EC50", "READING": "100 to 1000 nM"}
{"MOLECULE": "O=C([N-]c1c[n+](Cc2ccc(-c3ccc(CN4CCOCC4)cc3)cc2)no1)Nc1cccc(C(F)(F)F)c1 [Example 56]", "ATTRIBUTE MEASURED": "EC50", "READING": "1000 to 20000 nM"}
{"MOLECULE": "C[C@@H](c1ccc(-c2cncnc2)cc1)[n+]1cc([N-]C(=O)Nc2cccc(C(F)(F)F)c2)on1 [Example 74]", "ATTRIBUTE MEASURED": "EC50", "READING": "100 to 1000 nM"}
{"MOLECULE": "Cc1noc(C)c1-c1cnc(C[n+]2cc([N-]C(=O)Nc3cccc(C(F)(F)F)c3)on2)cn1 [Example 169]", "ATTRIBUTE MEASURED": "EC50", "READING": "100 to 1000 nM"}
{"MOLECULE": "Cc1cnn(C)c1-c1ccc(C[n+]2cc([N-]C(=O)Nc3cncc(C(F)(F)F)c3)on2)nc1 [Example 178]", "ATTRIBUTE MEASURED": "EC50", "READING": "< 100 nM"}
{"MOLECULE": "Cc1noc(C)c1-c1ccc(C[n+]2cc([N-]C(=O)Nc3cccc(C(F)(F)F)c3)on2)nn1 [Example 173]", "ATTRIBUTE MEASURED": "EC50", "READING": "< 100 nM"}
{"MOLECULE": "CC(Cc1ccccc1)[n+]1cc([N-]C(=O)Nc2cccc(Cl)c2)on1 (stereo not drawn) [Example 8]", "ATTRIBUTE MEASURED": "EC50", "READING": "> 20000 nM"}
{"MOLECULE": "CC(Cc1ccccc1)[n+]1cc([N-]C(=O)Nc2cc(C(F)(F)F)ccn2)on1 (stereo not drawn) [Example 16]", "ATTRIBUTE MEASURED": "EC50", "READING": "> 20000 nM"}
{"MOLECULE": "COc1ncc(-c2ccc(C[n+]3cc([N-]C(=O)Nc4ccccc4)on3)cc2)c(C)n1 [Example 115]", "ATTRIBUTE MEASURED": "EC50", "READING": "1000 to 20000 nM"}
{"MOLECULE": "O=C([N-]c1c[n+](Cc2cccc(-c3ccccc3)c2)no1)Nc1cccc(C(F)(F)F)c1 [Example 27]", "ATTRIBUTE MEASURED": "EC50", "READING": "1000 to 20000 nM"}
{"MOLECULE": "O=C([N-]c1c[n+](Cc2ccc(-c3cnn(C4CCNCC4)c3)nc2)no1)Nc1cccc(C(F)(F)F)c1 [Example 117]", "ATTRIBUTE MEASURED": "EC50", "READING": "1000 to 20000 nM"}
{"MOLECULE": "Cc1noc(C)c1-c1ccc([C@@H](CN)[n+]2cc([N-]C(=O)Nc3cccc(C(F)(F)F)c3)on2)cc1 [Example 116, formate]", "ATTRIBUTE MEASURED": "EC50", "READING": "100 to 1000 nM"}
